# Tested Target: Metallo-beta-lactamase VIM-1 (Pseudomonas aeruginosa, UniProt A0A0F7KYQ8)
Kindly apply the following: Yes if IC50 is less than 0.1 nM, No in every other case.

1. COc1ccc(CN(Cc2ccc(OC)cc2)S(=O)(=O)c2c(S(=O)(=O)NC[C@H](CO)NC(=O)OCc3ccccc3)ccc(I)c2-c2nnn(Cc3ccc(OC)cc3)n2)cc1 : No
2. COc1ccc(CN(Cc2ccc(OC)cc2)S(=O)(=O)c2c(S(=O)(=O)NC[C@@H](CNC(=O)OC(C)(C)C)NC(=O)OC(C)(C)C)ccc(I)c2-c2nnn(Cc3ccc(OC)cc3)n2)cc1 : No
3. Nc1ncccc1-c1ccc(S(=O)(=O)N[C@H]2C[C@@H]2N)c(S(N)(=O)=O)c1-c1nn[nH]n1 : No

Given the entry N#Cc1cccc(B(O)O)c1N , would its reported IC50 be below 0.1 nM?
Yes

* * *

# Tested Target: Metallo-beta-lactamase type 2 (Klebsiella pneumoniae, UniProt C7C422)
# Sequence (C7C422 whole entry): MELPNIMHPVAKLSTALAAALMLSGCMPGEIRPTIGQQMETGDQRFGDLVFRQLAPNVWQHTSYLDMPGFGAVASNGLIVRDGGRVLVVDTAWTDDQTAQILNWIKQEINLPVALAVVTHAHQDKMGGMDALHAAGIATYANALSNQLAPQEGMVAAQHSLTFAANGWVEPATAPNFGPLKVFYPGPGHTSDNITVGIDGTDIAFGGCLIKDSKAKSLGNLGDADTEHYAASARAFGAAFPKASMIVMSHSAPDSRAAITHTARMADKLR
Kindly apply the following: met if IC50 is less than 0.02 nM, not met in every other case.

1) Nc1ncccc1-c1ccc(S(=O)(=O)N[C@H]2C[C@@H]2N)c(S(N)(=O)=O)c1-c1nn[nH]n1 : not met
2) C[N+]1(CCN)CC[C@@H](NS(=O)(=O)c2ccc(-c3cccc4[nH]c(N)nc34)c(-c3nn[nH]n3)c2S(N)(=O)=O)C1 (stereo not given in full) : met
3) COc1ccc(CN(Cc2ccc(OC)cc2)S(=O)(=O)c2c(S(=O)(=O)N[C@H]3CN(C(=O)OC(C)(C)C)C[C@@H]3NC(=O)OC(C)(C)C)ccc(I)c2-c2nnn(Cc3ccc(OC)cc3)n2)cc1 : not met

Read the next record carefully.
Given the entry N#Cc1cccc(B(O)O)c1N , would its reported IC50 be below 0.02 nM?
met
